These entries and their values trace back to patent US7067537B2.

Where a name gives a salt, the structure may show the parent alone.
ENDPOINT_LABEL: melting point

COc1ccncc1-c1nc(-c2ccc(C)cc2C)cs1 (as salt: HCl): 154 °C
Cc1ccncc1-c1nc(-c2ccc(F)cc2)cs1: 129 °C
Cc1ccncc1-c1nc(-c2ccc(C(=O)O)cc2)cs1: > 300 °C
Nc1ccc(-c2csc(-c3cnccc3C(F)(F)F)n2)cc1: 71 to 72 °C
CNC(=O)c1ccc(C)c(-c2nc(-c3cnccc3C)cs2)c1: 140 to 143 °C
Cc1ccncc1-c1csc(-c2cc(NC=O)ccc2C)n1: 127 to 129 °C
Cc1ccncc1-c1nc(-c2ccc(S(N)(=O)=O)cc2)cs1: 219 °C
CNC(=O)c1ccc(F)c(-c2nc(-c3cnccc3C)cs2)c1: 195 to 196 °C
Cc1ccncc1-c1nc(-c2ccc(Cl)cc2)cs1: 119 °C
Cc1ccc(-c2nc(-c3cnccc3C)sc2F)cc1: 96 °C

Read off the recorded melting point for `CNC(=O)c1ccncc1-c1nc(-c2ccc(Cl)cc2)cs1`
205 °C

For the compound `CC(=O)Nc1ccc(C)c(-c2nc(-c3cnccc3C)cs2)c1` , give its measured melting point value.
151 to 152 °C

Specify melting point for `Cc1ccncc1-c1csc(-c2ccc(C(N)=O)cc2)n1` and stop.
155 to 157 °C

Give reported melting point value for CS(=O)(=O)Nc1cccc(-c2csc(-c3cnccc3C(F)(F)F)n2)c1 (as salt: hydrochloride)
162 to 165 °C

Entry `Cc1ccncc1-c1csc(-c2cc(C(=O)N(C)C)ccc2C)n1` needs its melting point filled in; supply it.
180 to 182 °C

Return melting point for the following compound: `CNC(=O)c1ccc(-c2nc(-c3cnccc3C)cs2)cc1`
115 °C

Using the record for COc1cccc(-c2csc(-c3cccnc3)n2)c1 (as salt: HBr) , state its measured melting point.
231 to 233 °C

Look up melting point of `Cc1ccc(-c2csc(-c3cnccc3C)n2)cc1` and report it.
98 °C
